Source: patent US20210221784A1

Consider the following compounds and their measured pIC50 readings.
target: human NPFFR1 (hNPFFR1) receptor (Homo sapiens); test: Human NPFFR1 evaluation using BRET biosensors in HEK-293 T cells; settings: hNPFFR1 in HEK-293 T cells, stimulated by EC80 RFRP-3, read-out: IC50 of antagonist activity
Sequence (Q9GZQ6 whole entry): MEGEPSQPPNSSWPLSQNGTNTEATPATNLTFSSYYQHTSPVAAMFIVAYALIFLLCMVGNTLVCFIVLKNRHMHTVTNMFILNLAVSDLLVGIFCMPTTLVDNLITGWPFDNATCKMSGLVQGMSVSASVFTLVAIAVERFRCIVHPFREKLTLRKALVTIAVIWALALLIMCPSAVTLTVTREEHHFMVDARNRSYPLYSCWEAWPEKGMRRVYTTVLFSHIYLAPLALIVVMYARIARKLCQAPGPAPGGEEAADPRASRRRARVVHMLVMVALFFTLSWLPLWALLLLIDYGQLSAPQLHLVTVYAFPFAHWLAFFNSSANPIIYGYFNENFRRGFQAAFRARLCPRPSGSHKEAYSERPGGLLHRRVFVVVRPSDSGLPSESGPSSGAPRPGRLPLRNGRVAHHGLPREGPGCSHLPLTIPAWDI
pIC50: −log10 of the molar value.

In the examples that follow, each entry is paired with its recorded pIC50.
{"compound": "COc1ccncc1-c1ccc(N)nc1N", "pIC50": "< 6.00"}
{"compound": "Cc1ccc(-c2ccc(N)nc2N)c2ccccc12.Cl", "pIC50": "6.30 to 7.00"}
{"compound": "COCc1nc(N)ccc1-c1ccccc1OC", "pIC50": "< 6.00"}

*Q* Recall the recorded pIC50 for CN(C)c1ccccc1-c1ccc(N)nc1N with human NPFFR1 (hNPFFR1) receptor (Homo sapiens) and state it.
*A* 6.30 to 7.00

*Q* Param readout = pIC50; param system = human NPFFR1 (hNPFFR1) receptor (Homo sapiens); param query = Nc1ccc(Cc2ccccc2Cl)c(N)n1 [Compound 10e, 3-(2-chlorobenzyl)pyridine-2,6-diamine] ; response: value
*A* 6.30 to 7.00

* * *

Examples of compounds with documented melting point follow.

Recorded results for 5 compounds are shown here.
{"entrySmiles": "COc1ccccc1-c1cnc(N)cc1OCC(F)(F)F.Cl", "melting point": "238 to 240 °C"}
{"entrySmiles": "Nc1ccc(-c2cccc(Cl)c2Cl)c(F)n1", "melting point": "139 to 144 °C"}
{"entrySmiles": "COc1ccccc1-c1cnc(N)cc1C", "melting point": "85 to 88 °C"}
{"entrySmiles": "CCc1nc(N)ccc1-c1cccc2ccccc12.Cl", "melting point": "90 to 120 °C"}
{"entrySmiles": "COc1ccccc1-c1ccc(N)nc1OCCN", "melting point": "197 to 203 °C"}

Now look at this one.
*Q* GET /values?readout=melting point&item= Cl.Nc1cc(OCC(F)(F)F)c(-c2cccc(Cl)c2Cl)cn1
*A* > 250 °C

* * *

Quick note: these are pKi numbers for system: hNPFFR2 (Homo sapiens, UniProt Q9Y5X5)
Sequence (Q9Y5X5 whole entry): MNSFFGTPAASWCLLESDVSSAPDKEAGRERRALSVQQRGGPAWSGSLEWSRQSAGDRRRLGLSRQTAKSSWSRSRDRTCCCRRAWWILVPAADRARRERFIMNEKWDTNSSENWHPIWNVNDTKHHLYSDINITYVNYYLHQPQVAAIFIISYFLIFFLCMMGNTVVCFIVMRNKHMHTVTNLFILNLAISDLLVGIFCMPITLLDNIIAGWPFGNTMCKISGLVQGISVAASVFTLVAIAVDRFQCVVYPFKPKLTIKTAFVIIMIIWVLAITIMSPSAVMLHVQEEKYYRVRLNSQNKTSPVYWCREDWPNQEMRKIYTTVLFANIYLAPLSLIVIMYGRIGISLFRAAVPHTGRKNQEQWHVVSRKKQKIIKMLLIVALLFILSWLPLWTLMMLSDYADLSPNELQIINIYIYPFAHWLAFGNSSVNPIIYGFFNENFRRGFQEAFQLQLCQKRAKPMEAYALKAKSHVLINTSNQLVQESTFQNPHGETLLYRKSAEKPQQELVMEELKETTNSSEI
Hey, just a heads up that pKi is the negative log base 10 of the concentration in molar.

{"molecule": "COc1cc(F)ccc1-c1ccc(N)nc1N [Compound 2k]", "readoutNumber": 5.49}
{"molecule": "Cc1c(Cl)cccc1-c1ccc(N)nc1N [Compound 1q]", "readoutNumber": 5.14}
{"molecule": "Nc1ccc(-c2cccc(Cl)c2Cl)c(NCCN2CCCCC2)n1 [Compound 5h]", "readoutNumber": 5.49}
{"molecule": "CCCCOc1ccccc1-c1ccc(N)nc1N [Compound 2e, 3-(2-butoxyphenyl)pyridine-2,6-diamine]", "readoutNumber": 5.74}
{"molecule": "Nc1ccc(-c2ccc(Cl)cc2)c(N)n1 [Compound 1i, 3-(4-chlorophenyl)pyridine-2,6-diamine]", "readoutNumber": 5.06}

*Q* Missing value: pKi, hNPFFR2 (Homo sapiens, UniProt Q9Y5X5), entry Nc1nc(N)c(-c2cccc(Cl)c2Cl)cc1F [Compound 9a] . Fill in?
*A* 5.74

*Q* Missing value: pKi, hNPFFR2 (Homo sapiens, UniProt Q9Y5X5), entry Nc1ccc(Cc2ccccc2)c(N)n1 [Compound 10a, 3-benzylpyridine-2,6-diamine] . Fill in?
*A* 5.55

*Q* Param readout = pKi; param system = hNPFFR2 (Homo sapiens, UniProt Q9Y5X5); param query = CCc1nc(N)ccc1-c1ccccc1OC [Compound 6d] ; response: value
*A* 6.02

*Q* Lab note: need pKi for Nc1ccc(-c2cccc(Cl)c2Cl)c(NCCc2ccccc2)n1 [Compound 5f] on hNPFFR2 (Homo sapiens, UniProt Q9Y5X5), anyone have it?
*A* 6.10

*Q* Notebook: pull reported pKi for hNPFFR2 (Homo sapiens, UniProt Q9Y5X5), entry Nc1ccc(-c2cccc(Cl)c2Cl)c(N)n1 [Compound 1j]
*A* 5.70

*Q* # value lookup — system hNPFFR2 (Homo sapiens, UniProt Q9Y5X5), readout pKi, item Nc1ccc(CCc2ccccc2)c(N)n1 [Compound 11a, 3-phenethylpyridine-2,6-diamine]
*A* 5.27

*Q* Please tell me: pKi of Nc1ccc(-c2cccc(C(F)(F)F)c2Cl)c(N)n1 [Compound 1p] , system hNPFFR2 (Homo sapiens, UniProt Q9Y5X5)?
*A* 5.34

*Q* Checklist item: pKi tested on hNPFFR2 (Homo sapiens, UniProt Q9Y5X5), entry CC(C)Oc1ccccc1-c1ccc(N)nc1N [Compound 2f] , value?
*A* 5.68

*Q* Field: pKi (hNPFFR2 (Homo sapiens, UniProt Q9Y5X5)). Entry: Nc1ccc(-c2cccc(Cl)c2Cl)c(N2CCCCC2)n1 [Compound 5i]
*A* 5.20

*Q* Item: Cc1ccccc1-c1c(C)cc(N)nc1N [Compound 8b, 4-methyl-3-(o-tolyl)pyridine-2,6-diamine] Test system: hNPFFR2 (Homo sapiens, UniProt Q9Y5X5) Read-out: pKi Value: ?
*A* 5.34
